All figures here come from the supplement of paper PMC10567573.

Reported protein stability index is given for each of the following variants.
B1: FBXO3 (parent)
chain: DEEERRRRVFDVPIRRRRCSRLF

- Variants of: B1
- Assay remarks: protein stability index of a GFP-peptide fusion (GPS, HEK-293T) (PSI 1-6); higher = more stable;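 note: lentivirally expressed fusions sorted by FACS into six bins by GFP to DsRed ratio, PSI derived from sequencing read proportions per bin multiplied by bin number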
- Cond: c terminus: native
Output spec: single numeric token, no unit.

P13A = 2.46
E4D = 3.66
S20E = 3.04

Ask: Give the measured protein stability index of C19D .
Reply: 3.44

Ask: What about R16H ?
Reply: 2.23

Ask: What about R6T ?
Reply: 3.66
